targetOfAssay: T1, ZFP SBS#884 (synthetic)
T1 chain: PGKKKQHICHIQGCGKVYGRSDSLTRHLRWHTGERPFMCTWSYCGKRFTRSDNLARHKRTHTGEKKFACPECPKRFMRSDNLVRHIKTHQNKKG
experiment: EMSA
recordedConditions: tags: MBP fusion
measurementName: pKd
Hey, just a heads up that pKd is the negative log base 10 of the concentration in molar.

Form field: reported pKd of GAGGAGGTGA (dsDNA) DNA 1: GAGGAGGTGA DNA 2: TCACCTCCTC 9.82
